Measured pIC50 of individual entries
target: PAS domain-containing serine/threonine-protein kinase (Homo sapiens); assay: Inhibition of N-terminal GST-tagged human recombinant PASK kinase domain (879 to 1323 residues) expressed in insect cells using MBP protein substrate incubated for 120 mins in presence of [33P]ATP by scintillation counting based radiochemical assay
Sequence (Q96RG2 whole entry, the tested form may be a part): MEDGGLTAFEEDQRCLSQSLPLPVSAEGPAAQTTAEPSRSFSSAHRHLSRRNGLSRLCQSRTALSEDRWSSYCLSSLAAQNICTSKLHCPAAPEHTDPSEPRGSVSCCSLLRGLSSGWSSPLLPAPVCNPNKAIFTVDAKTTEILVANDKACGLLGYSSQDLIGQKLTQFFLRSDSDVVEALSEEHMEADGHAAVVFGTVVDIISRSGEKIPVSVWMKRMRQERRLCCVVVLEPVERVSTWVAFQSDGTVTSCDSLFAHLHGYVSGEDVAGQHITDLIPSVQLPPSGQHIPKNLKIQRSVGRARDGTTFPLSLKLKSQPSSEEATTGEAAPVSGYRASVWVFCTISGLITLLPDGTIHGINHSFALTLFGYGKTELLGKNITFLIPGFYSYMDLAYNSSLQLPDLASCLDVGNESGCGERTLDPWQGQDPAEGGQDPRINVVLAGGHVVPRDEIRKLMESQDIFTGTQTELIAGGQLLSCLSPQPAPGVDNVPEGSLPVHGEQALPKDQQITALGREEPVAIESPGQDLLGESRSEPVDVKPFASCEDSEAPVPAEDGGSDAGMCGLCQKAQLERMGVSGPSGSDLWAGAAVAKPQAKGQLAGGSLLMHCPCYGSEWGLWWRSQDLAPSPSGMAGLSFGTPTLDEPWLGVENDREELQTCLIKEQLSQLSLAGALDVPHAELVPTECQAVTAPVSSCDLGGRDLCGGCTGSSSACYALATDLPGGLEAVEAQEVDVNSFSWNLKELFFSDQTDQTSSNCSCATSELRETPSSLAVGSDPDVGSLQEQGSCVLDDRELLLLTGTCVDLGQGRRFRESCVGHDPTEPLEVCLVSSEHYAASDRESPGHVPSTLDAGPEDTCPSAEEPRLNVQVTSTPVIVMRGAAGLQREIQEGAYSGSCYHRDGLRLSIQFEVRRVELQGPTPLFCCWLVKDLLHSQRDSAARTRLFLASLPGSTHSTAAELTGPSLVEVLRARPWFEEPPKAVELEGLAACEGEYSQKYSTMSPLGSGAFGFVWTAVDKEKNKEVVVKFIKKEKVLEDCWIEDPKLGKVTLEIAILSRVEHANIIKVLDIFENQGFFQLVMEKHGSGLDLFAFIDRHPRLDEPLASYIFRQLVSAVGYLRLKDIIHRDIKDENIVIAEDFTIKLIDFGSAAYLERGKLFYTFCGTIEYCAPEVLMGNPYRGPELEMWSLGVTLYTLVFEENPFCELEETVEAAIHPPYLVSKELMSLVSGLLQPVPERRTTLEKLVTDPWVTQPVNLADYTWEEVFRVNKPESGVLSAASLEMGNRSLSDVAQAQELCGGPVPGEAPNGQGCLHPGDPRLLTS
pIC50: −log10 of the molar value.
measure-name: pIC50

compound_structure_string=COc1cc(-c2cc(=O)n3ncc(CC#N)c3[nH]2)ccc1Cl measure_name=pIC50 measured="≥ 5.00"
compound_structure_string=CCc1cnc(-c2cnn3c(=O)cc(-c4ccc5c(cnn5CC)c4)[nH]c23)o1 measure_name=pIC50 measured="≥ 5.00"
